IC50 overview
Target: Recombinant Human NF-Kappab-Inducing Kinase (NIK/MAP3K14) (Homo sapiens)
Sequence (Q99558 whole entry): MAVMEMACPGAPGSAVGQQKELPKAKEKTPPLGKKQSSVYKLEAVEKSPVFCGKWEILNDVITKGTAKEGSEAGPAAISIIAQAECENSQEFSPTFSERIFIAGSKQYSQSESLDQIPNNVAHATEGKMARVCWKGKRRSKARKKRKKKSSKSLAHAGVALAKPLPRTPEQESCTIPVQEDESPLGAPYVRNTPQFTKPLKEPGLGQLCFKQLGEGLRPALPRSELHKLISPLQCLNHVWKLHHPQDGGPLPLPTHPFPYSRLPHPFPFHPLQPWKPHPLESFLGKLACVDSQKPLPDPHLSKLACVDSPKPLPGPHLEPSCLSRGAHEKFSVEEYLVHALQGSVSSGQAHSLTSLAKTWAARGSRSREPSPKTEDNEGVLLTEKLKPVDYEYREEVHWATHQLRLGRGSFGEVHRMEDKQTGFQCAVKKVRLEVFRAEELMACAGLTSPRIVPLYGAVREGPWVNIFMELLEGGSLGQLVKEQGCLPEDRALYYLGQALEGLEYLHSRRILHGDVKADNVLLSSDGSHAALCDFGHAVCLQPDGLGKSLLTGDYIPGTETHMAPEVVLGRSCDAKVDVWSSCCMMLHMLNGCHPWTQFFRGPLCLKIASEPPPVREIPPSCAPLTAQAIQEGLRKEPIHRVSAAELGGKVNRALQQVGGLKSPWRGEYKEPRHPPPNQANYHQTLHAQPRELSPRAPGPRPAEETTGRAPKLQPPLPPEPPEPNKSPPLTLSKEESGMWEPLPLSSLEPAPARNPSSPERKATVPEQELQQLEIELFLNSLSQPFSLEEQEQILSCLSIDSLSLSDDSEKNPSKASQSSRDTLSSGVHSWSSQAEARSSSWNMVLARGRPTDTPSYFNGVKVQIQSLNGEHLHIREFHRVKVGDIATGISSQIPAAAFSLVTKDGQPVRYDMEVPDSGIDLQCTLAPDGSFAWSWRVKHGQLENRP
Experiment: Inhibition of auto-phosphorylation of recombinant human NIK/MAP3K14 (AlphaScreen)
Assay type: biochemical
Settings: NIK/MAP3K14 auto-phosphorylation, 5 microM ATP, 1 nM enzyme, 2 h at 25° C.; average of values; read-out: Assay 1 IC50

- molecule: "CN1CC[C@@](O)(c2cc(-c3cccc(-c4cc(-c5c[nH]nc5C5CC5)cc(C(N)=O)n4)c3)no2)C1=O"
  IC50: "< 100 nM"
- molecule: "CN1CC[C@@](O)(c2cc(-c3cccc(-c4cccc(C(N)=O)n4)c3)no2)C1=O"
  IC50: "< 100 nM"
- molecule: "COc1cc(-c2cc(-c3cc([C@]4(O)C[C@@H](C(F)(F)F)N(C)C4=O)on3)ccc2F)nc2c(N)ncnc12"
  IC50: "< 100 nM"
- molecule: "[2H]c1nc(N)c2nc(-c3cccc(-c4ncc([C@@]5(O)CCN(C)C5=O)o4)c3)ccc2n1 (single isomer, unassigned)"
  IC50: "> 501 nM"
- molecule: "CN1CC[C@@](O)(c2cc(-c3cccc(-c4nc5c(c(C(N)=O)n4)[C@H]4CC[C@@H](C5)O4)c3)no2)C1=O"
  IC50: "< 100 nM"
- molecule: "CN1CC[C@@](O)(c2cc(-c3cccc(-c4ncc(N)c(C(=O)N[C@@H]5CCOC5)n4)c3)no2)C1=O"
  IC50: "< 100 nM"
- molecule: "COc1cc(-c2cccc(-c3cc([C@]4(O)CCN(C)C4=O)on3)c2)cc(C(N)=O)n1"
  IC50: "> 501 nM"
